Tested on: guineagrass
Assay: Test F preemergence test
Assay type: in vivo, Panicum maximum
Conditions: Preemergence; 16 g ai/ha; scale 0 to 100
reported-property: Plant response rating, Guineagrass
Answers are plain numbers.

# molecule, Plant response rating, Guineagrass
data = [
    ("Cn1nc(C(F)(F)F)c(C[S+]([O-])c2ccc(Cl)c[n+]2[O-])c1OC(F)F (stereo not shown)", 100),
    ("Cc1cc[n+]([O-])c(S(=O)(=O)Cc2c(C(F)(F)F)nn(C)c2OC(F)F)c1", 65),
    ("Cn1nc(C(F)(F)F)c(C[S+]([O-])c2cccc[n+]2[O-])c1Cl (stereo not shown)", 35),
]

Then this molecule:
Qu. Quick one: Plant response rating, Guineagrass of Cc1cc[n+]([O-])c(S(=O)(=O)C(Cl)c2c(C(F)(F)F)nn(C)c2Cl)c1 (racemic) ?
Ans. 60

Entry source: patent US20100298141A1
